target-under-test: T1, human MSR1 with a C-terminal Myc tag expressed on HEK293.Myc.hMSR1 cells (human, UniProt P21757 1-451)
T1 sequence (looked up): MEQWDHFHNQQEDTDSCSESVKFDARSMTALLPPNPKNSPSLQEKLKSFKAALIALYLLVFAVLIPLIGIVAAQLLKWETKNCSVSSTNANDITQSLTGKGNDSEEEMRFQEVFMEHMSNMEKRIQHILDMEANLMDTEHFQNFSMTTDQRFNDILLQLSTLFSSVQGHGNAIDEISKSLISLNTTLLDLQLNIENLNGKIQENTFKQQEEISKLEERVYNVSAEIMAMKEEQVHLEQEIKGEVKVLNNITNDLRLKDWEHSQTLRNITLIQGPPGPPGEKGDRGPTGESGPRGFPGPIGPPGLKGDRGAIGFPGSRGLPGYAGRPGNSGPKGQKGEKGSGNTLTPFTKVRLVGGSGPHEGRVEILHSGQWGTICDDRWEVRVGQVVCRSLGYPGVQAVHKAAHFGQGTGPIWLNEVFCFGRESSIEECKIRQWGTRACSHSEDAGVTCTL
test: cell-based or functional assay
Each entry below carries its reported IC50 of inhibition of Dil-Oxidized LDL uptake.

See these solved cases before continuing.
H1H21234N-N297Q (antibody, V domains shown) VH: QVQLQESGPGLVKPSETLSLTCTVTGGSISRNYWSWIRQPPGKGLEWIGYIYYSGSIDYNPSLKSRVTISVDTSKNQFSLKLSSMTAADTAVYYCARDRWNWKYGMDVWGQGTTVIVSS VL: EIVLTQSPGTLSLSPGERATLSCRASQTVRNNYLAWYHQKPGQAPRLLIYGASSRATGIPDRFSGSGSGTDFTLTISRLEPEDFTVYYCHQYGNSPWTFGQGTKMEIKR :: 6.1 nM
H1H27747P-N297Q (antibody, V domains shown) VH: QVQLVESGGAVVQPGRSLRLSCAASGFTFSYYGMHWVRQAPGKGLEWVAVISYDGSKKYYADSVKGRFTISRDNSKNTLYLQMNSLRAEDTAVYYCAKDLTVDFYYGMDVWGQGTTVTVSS VL: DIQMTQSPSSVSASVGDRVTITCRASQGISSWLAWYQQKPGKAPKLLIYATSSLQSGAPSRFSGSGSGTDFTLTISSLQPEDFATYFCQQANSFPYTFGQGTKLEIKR :: > 100 nM

Query: Please give the measured IC50 of inhibition of Dil-Oxidized LDL uptake for this binder: H1H27739P-N297Q (antibody, V domains shown) VH: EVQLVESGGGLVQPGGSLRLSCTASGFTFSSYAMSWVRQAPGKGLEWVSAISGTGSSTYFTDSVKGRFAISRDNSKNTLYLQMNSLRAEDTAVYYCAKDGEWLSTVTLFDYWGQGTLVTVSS VL: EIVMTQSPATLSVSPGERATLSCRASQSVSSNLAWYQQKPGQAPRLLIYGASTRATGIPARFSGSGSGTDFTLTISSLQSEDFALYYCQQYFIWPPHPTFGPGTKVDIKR
Response: > 100 nM
